- Measurement target: BTK (Homo sapiens)
- Construct: the BTK open reading frame (ORF) was first shuttled from a pcDNA-DEST40-BTK vector; expressed in transfected cells; host or cells: HEK293A (Invitrogen R70507), lentiviral transduction, blasticidin selection
- Sequence (Q06187 whole entry): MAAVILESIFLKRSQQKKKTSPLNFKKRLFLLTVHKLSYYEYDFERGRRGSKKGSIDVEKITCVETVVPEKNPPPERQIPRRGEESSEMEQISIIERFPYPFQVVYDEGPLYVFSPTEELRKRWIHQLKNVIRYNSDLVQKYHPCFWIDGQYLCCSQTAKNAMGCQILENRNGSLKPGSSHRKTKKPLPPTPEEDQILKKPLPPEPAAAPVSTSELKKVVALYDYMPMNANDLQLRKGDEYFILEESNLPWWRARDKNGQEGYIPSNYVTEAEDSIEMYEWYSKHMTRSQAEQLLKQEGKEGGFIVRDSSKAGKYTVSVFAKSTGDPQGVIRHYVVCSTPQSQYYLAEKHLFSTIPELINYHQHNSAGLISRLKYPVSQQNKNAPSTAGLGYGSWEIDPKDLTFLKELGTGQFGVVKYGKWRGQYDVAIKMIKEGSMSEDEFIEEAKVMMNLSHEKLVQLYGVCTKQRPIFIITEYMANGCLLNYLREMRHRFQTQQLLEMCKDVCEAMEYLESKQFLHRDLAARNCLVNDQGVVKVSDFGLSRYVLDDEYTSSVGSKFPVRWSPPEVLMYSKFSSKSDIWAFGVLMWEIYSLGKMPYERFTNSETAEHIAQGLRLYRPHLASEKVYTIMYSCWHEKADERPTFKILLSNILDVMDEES
- Assay method text: BTK-GFP protein abundance flow cytometry assay in HEK293A
- Assay type: cell-based
- Measurement conditions: concentration at which 50% maximal degradation was observed; HEK293A BTK-GFP sensor cells, 24 h
DC50 for assorted molecules
Answer in nM, number only, no unit symbol.

{"Molecule": "Cc1c(NC(=O)c2ccc(C(C)(C)O)cc2F)cc(F)cc1-c1ncnc2[nH]c(-c3ccc(CN4CCN(C(=O)N5CCN(CCC#Cc6ccc(N7CCC(=O)NC7=O)cc6)CC5)CC4)cc3)cc12 [Compound 23]", "DC50 (nM)": 2.8}
{"Molecule": "Cc1c(NC(=O)N2C[C@H](CC(C)C)[C@@H](O)C2)cc(F)cc1-c1ncnc2[nH]c(-c3ccc(CN4CCC(OC5CCN(CCn6cccc(CN7CCC(=O)NC7=O)c6=O)CC5)CC4)cc3)cc12 [Compound 35]", "DC50 (nM)": 2.1}

Q: Lab note: need DC50 for Cc1c(NC(=O)c2ccc(C(C)(C)O)cc2F)cc(F)cc1-c1ncnc2[nH]c(-c3ccc(CN4CCN(C(=O)N5CCN(CCC#Cc6cccc(N7CCC(=O)NC7=O)c6)CC5)CC4)cc3)cc12 [Compound 03] on BTK (Homo sapiens), anyone have it?
Result: 24.8

Q: Subsequent entry: Cc1ccc(OCC(=O)N2CCN(CCOc3ccc(-c4cc5c(-c6cc(F)cc(NC(=O)c7ccc(C(C)(C)O)cc7F)c6C)ncnc5[nH]4)cc3)CC2)cc1N1CCC(=O)NC1=O [Compound 10]
Result: 3.3

Q: Do the same for Cc1c(NC(=O)c2ccc(C(C)(C)O)cc2F)cc(F)cc1-c1ncnc2[nH]c(-c3ccc(CN4CCN(CCNC(=O)COc5ccc(N6CCC(=O)NC6=O)cc5)CC4)cc3)cc12 [Compound 26] please
Result: 11.2

Q: Input Cc1c(NC(=O)c2ccc(C(C)(C)O)cc2F)cc(F)cc1-c1ncnc2[nH]c(C3=CCN(C(=O)CCCCN4CCC(Oc5ccc(N6CCC(=O)NC6=O)cc5)CC4)CC3)cc12 [Compound 27]
Result: 22

Q: Could you do the same for Cc1c(NC(=O)c2ccc(C(C)(C)O)cc2F)cc(F)cc1-c1ncnc2[nH]c(-c3ccc(CNCCN4CCC(Oc5ccc(N6CCC(=O)NC6=O)cc5)CC4)cc3)cc12 [Compound 29] , please?
Result: 40.2

Q: How about this molecule: Cc1c(NC(=O)c2ccc(C(C)(C)O)cc2F)cc(F)cc1-c1ncnc2[nH]c(-c3ccc(CNCCCCOCCn4cccc(CN5CCC(=O)NC5=O)c4=O)cc3)cc12 [Compound 34]
Result: 642

Q: Follow-up entry: Cc1ncc(C(=O)NCCCCCN(C)Cc2ccc(-c3cc4c(-c5cc(F)cc(NC(=O)c6ccc(C(C)(C)O)cc6F)c5C)ncnc4[nH]3)cc2)cc1N1CCC(=O)NC1=O [Compound 17]
Result: 101

====

// reported AC50 for each item listed
- Measurement target: CRBN (Homo sapiens, UniProt Q96SW2)
- Sequence (Q96SW2 whole entry): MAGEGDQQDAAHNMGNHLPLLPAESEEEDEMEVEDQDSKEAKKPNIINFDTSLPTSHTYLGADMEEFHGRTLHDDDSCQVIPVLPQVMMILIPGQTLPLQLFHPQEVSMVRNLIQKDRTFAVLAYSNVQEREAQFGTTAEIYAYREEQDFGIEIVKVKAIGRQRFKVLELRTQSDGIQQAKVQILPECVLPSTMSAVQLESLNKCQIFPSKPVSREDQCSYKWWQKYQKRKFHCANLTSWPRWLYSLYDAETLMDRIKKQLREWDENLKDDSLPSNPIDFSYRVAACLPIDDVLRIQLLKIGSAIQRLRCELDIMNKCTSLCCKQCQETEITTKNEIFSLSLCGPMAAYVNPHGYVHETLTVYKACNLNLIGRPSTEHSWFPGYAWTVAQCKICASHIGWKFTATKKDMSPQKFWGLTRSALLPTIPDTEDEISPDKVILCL
- Assay method text: CRBN displacement assay Format 1 (fluorescence polarization, BodipyFL-lenalidomide probe Compound HH)
- Format: binding
Just the number please, in nM, no unit attached.

Q: Can you look up the measured AC50 of Cc1c(NC(=O)c2ccc(C(C)(C)O)cc2F)cc(F)cc1-c1ncnc2[nH]c(-c3ccc(CNCCCCCCOc4cccc(N5CCC(=O)NC5=O)c4)cc3)cc12 for me?
Result: 504

Q: Consider next the compound O=C1CCN(c2cc(C(=O)N3CCC(OC4CCNCC4)CC3)ccc2Cl)C(=O)N1 in the same way.
Result: 2800

Q: Request: Cc1c(NC(=O)c2ccc(C(C)(C)O)cc2F)cc(F)cc1-c1ncnc2[nH]c(-c3ccc(CN(C)CCCNC(=O)COc4cccc(N5CCC(=O)NC5=O)c4)cc3)cc12
Result: 7160

Q: Check COc1ccc(C(=O)N2CCC3(CCNCC3)CC2)cc1N1CCC(=O)NC1=O too.
Result: 1260

====

- Measurement target: CRBN (Homo sapiens, UniProt Q96SW2)
- Assay method text: CRBN displacement assay Format 1 (fluorescence polarization, BodipyFL-lenalidomide probe Compound HH)
- Assay type: binding
- Measurement conditions: concentration at which 50% of reference probe Compound HH is displaced; 100 nM protein, 5 nM probe; Table 4; read-out: CRBN AC50 [μM] Format 1
Reported AC50 values are given for each entry in this list.
Provide only the numeric value, understood in µM.

{"Compound": "O=C1CCN(c2ccc(C#CCN3CCOC4(CCNCC4)C3)cc2)C(=O)N1 [ILB-40]", "Experimental value": 12.3}

Q: Look up AC50: C#Cc1cccc(N2CCC(=O)NC2=O)c1 [ILB-33]
Result: 6.52

Q: Also, O=CCOc1cccc(N2CCC(=O)NC2=O)c1 [ILB-18] please.
Result: 11.2

Q: Follow-up item: COc1cc(C(=O)O)ccc1N1CCC(=O)NC1=O [ILB-81]
Result: 12.3

Q: For COc1ccc(C(=O)O)cc1N1CCC(=O)NC1=O [ILB-26] then?
Result: 2.92

Q: Next compound: Cc1cc(OCC(=O)O)ccc1N1CCC(=O)NC1=O [ILB-15]
Result: 7.37

Q: Would you kindly repeat that for O=C1CCN(c2cc(C(=O)O)ccc2Cl)C(=O)N1 [ILB-25] ?
Result: 1.98

====

- Measurement target: CRBN (Homo sapiens)
- Assay method text: CRBN displacement assay Format 1 (fluorescence polarization, BodipyFL-lenalidomide probe Compound HH)
- Assay type: binding
AC50 vs 600 nM: less than gives class 1; not less than gives class 0.

Study these solved cases before continuing.
{"Molecule": "Cc1ccc(OCC(=O)N2CCN(CCOc3ccc(-c4cc5c(-c6cc(F)cc(NC(=O)c7ccc(C(C)(C)O)cc7F)c6C)ncnc5[nH]4)cc3)CC2)cc1N1CCC(=O)NC1=O [Compound 10]", "Class label": "class 1"}
{"Molecule": "Cc1c(NC(=O)c2ccc(C(C)(C)O)cc2F)cc(F)cc1-c1ncnc2[nH]c(-c3ccc(CNCCCCOCCn4cccc(CN5CCC(=O)NC5=O)c4=O)cc3)cc12 [Compound 34]", "Class label": "class 0"}

Q: Input O=C1CCN(Cc2cccn(CCO)c2=O)C(=O)N1 [ILB-3] ; condition: AC50 strictly below 600 nM. Does it hold?
Result: class 0

Q: Another molecule to check: COc1ccc(C(=O)N2CCC3(CCN(C(=O)CN4CCN(c5cc(Nc6ncc(C(=O)Nc7c(C)cccc7Cl)s6)nc(C)n5)CC4)CC3)CC2)cc1N1CCC(=O)NC1=O [compound 07]
Result: class 1

Q: Also O=C1CCN(Cc2cccn(CCN3CCC(OC4CCNCC4)CC3)c2=O)C(=O)N1 [ILB-6] ?
Result: class 0

====

- Measurement target: CRBN (Homo sapiens, UniProt Q96SW2)
- Assay method text: CRBN displacement assay Format 1 (fluorescence polarization, BodipyFL-lenalidomide probe Compound HH)
- Format: binding
- Measurement conditions: concentration at which 50% of reference probe Compound HH is displaced; 100 nM protein, 5 nM probe; Table 4; read-out: CRBN AC50 [μM] Format 1
Reported property: AC50 (µM)
// units = µM; emit number, no label

{"Substance smiles": "O=C(O)COc1cccc(N2CCC(=O)NC2=O)c1", "Reported property": "AC50", "Experimental value": 11.7}

Q: Can you share its AC50? I mean this molecule: O=C1CCN(c2cccc(C(=O)O)c2)C(=O)N1
Result: 3.41

Q: Same for O=C1CCN(c2ccc(C(=O)O)cc2)C(=O)N1
Result: 9.64

====

The following compounds are shown together with reported AC50 values.
- Measurement target: CRBN (Homo sapiens, UniProt Q96SW2)
- Assay method text: CRBN displacement assay Format 1 (fluorescence polarization, BodipyFL-lenalidomide probe Compound HH)
- Format: binding
- Procedure: Compounds were tested in the following biochemical and cellular assays. BodipyFL conjugated lenalidomide compound HH was used as a fluorescent probe. […] Protein and substrate were diluted in assay buffer. All protein and probe containing solutions were handled in ‘Maxymum Recovery’ tubes (Axygen Scientific Inc., Union City, USA). […] For the plate measurements a PHERAstar reader (BMG Labtech, Offenburg, Germany) was used. […] The fluorescence in each well was excited by 10 flashes per measurement. […]
Hi! Could you send only the number? It should be in nM, unit omitted.

{"Compound": "O=C1CCN(c2ccc(OCC(=O)N3CCC(OC4CCNCC4)CC3)cc2)C(=O)N1 [ILB-55]", "Quantity unit": "nM", "Experimental value": 14400}
{"Compound": "COc1cc(C(=O)NCCCCN2CCN(Cc3ccc(-c4cc5c(-c6cc(F)cc(NC(=O)c7ccc(C(C)(C)O)cc7F)c6C)ncnc5[nH]4)cc3)CC2)ccc1N1CCC(=O)NC1=O [Compound 25]", "Quantity unit": "nM", "Experimental value": 4470}
{"Compound": "Cc1c(NC(=O)N2CC(O)(CC(C)(C)C)C2)cc(F)cc1-c1ncnc2[nH]c(-c3ccc(OCCCN4CCN(C(=O)COc5ccc(Cl)c(N6CCC(=O)NC6=O)c5)CC4)nc3)cc12 [Compound 13]", "Quantity unit": "nM", "Experimental value": 575}
{"Compound": "Cc1c(NC(=O)N2C[C@H](CC(C)C)[C@@H](O)C2)cc(F)cc1-c1ncnc2[nH]c(-c3ccc(CN4CCC(OC5CCN(CCn6cccc(CN7CCC(=O)NC7=O)c6=O)CC5)CC4)cc3)cc12 [Compound 35]", "Quantity unit": "nM", "Experimental value": 742}

Consider the additional compound presented here.
Q: Entry Cc1c(NC(=O)c2ccc(C(C)(C)O)cc2F)cc(F)cc1-c1ncnc2[nH]c(-c3ccc(CN4CCN(CCNC(=O)COc5cccc(N6CCC(=O)NC6=O)c5)CC4)cc3)cc12 [Compound 09] : reported AC50 = ?
Result: 1400

Hello, the source for this data is patent US20220387602A1, in case you need it.
